# Tested on: SNB-19
# test-name: NCI tumour cell line growth inhibition, 48 h
Activity calls are given as the source filed them. Cut-off read from the data, not from the text of the source: active = GI50 up to about 1.1 µM and inactive = higher. Residues, ends and D or L forms follow the SMILES beside them. *: point of attachment. Boc = CC(C)(C)OC(=O)*; OBn = c1ccc(CO*)cc1
API: response.call in yes (active), no (inactive)

Which outcome was assigned to `CCCCOC(=O)N[C@H]1CCc2cc(OC)c(OC)c(OC)c2-c2ccc(SC)c(=O)cc21` in this test? yes

How about CC(C)C(NC(=O)C(Cc1ccccc1)NC(=O)OC(C)(C)C)C(=O)NCC(=O)OCc1ccccc1 (stereo not drawn) (Boc-Phe-Val-Gly-OBn; configuration not given here) ? no

How about `Cc1cccc2c(N)c3cccc(C(=O)NCCNCCN)c3nc12` ? no

How about O=c1[nH]c(=O)n(C2CC(O)C(CO)O2)cc1OC/C=C/Cc1ccccc1 (configuration not stated) ? no

How about `Cc1nc2sccn2c1C(=O)N/N=C1\SCC(=O)N1C` ? no

How about `CCOC(=O)/C(C#N)=C/c1ccnc2ccccc12` ? no

How about `O=C(O)c1cc(O)nc(SCc2ccccc2)n1` ? no

---

Reported GI50 values for the following compounds.
# System: HCT-15

Any idea what GI50 came out for Cc1ccc(C)c(N2C(=O)C(=O)C(c3nc4ccccc4s3)/C(=N/NC(=O)NN)C2=O)c1 (stereo unspecified) on HCT-15? > 100 µM

Further cases:
Any idea what GI50 came out for `Cc1c(Cl)cccc1NC(=O)/C=C/c1ccccc1` on HCT-15? > 100 µM

How about `CCOC(=O)C1(C(=O)OCC)CN(CC)CN(c2ccccc2)C1` ? 16 µM

How about `O=C1c2ccccc2C(=O)c2c(NC(=O)C3CC3)ccc(NC(=O)C3CC3)c21` ? > 100 µM

How about `NS(=O)(=O)c1ccc(N=C2C(=O)Nc3ccccc32)cc1` ? > 100 µM

How about `CNC(=S)/C(=N\Nc1[nH]cnc1C(N)=O)C(N)=S` ? 15.1 µM

---

# Tested on: EKVX
# test-name: NCI tumour cell line growth inhibition, 48 h
Calls of active or inactive are those of the source. No stated cut-off is given here; in the data, active = GI50 up to about 1.1 µM and inactive = higher.
API: response.call in 1 (yes) (active), 0 (no) (inactive)

Which outcome was assigned to `C=C(C)[C@H]1Cc2c(ccc3c2O[C@@H]2COc4cc(OC)c(OC)cc4[C@@H]2C3=O)O1` in this test? 1 (yes)

How about `Cc1cccc2c(N)c3cccc(C(=O)NCCNCCN)c3nc12` ? 0 (no)

Here is another compound to look at.
Which outcome was assigned to Cc1ccc2c(c1)C(=O)C1(Cc3ccccc3C1=O)C2 (stereo unspecified) in this test? 0 (no)

---

# Tested on: SN12C
# test-name: NCI tumour cell line growth inhibition, 48 h
Activity calls are given as the source filed them. No stated cut-off is given here; in the data, active = GI50 up to about 1.1 µM and inactive = higher.
readout-name: GI50

Need GI50, item `NCS(=O)(=O)O` > 100 µM (inactive)

How about `Cn1c(COC(=O)Nc2ccccc2)c(COC(=O)Nc2ccccc2)c2ccc3cc(Cl)c(Cl)cc3c21` ? 4.07 µM (inactive)

How about `O=C(O)CCCSC(=O)Nc1ccc(/N=N/c2ccccc2)cc1` ? > 100 µM (inactive)

How about CC(=O)O/C=C\OC1CCCC1(c1ccccc1)c1ccccc1 (centres undefined) ? 3.32 µM (inactive)

How about `O=c1[nH]c(Nc2cccc(C(F)(F)F)c2)nc2[nH]cnc12` ? > 100 µM (inactive)

Further cases:
Need GI50, item `O=S(=O)(O)c1ccc2c(/N=N/c3c(O)ccc4ccccc34)cccc2c1` > 100 µM (inactive)

How about COC(=O)c1ccc(C)cc1CC1Cc2cccc(C)c2C1=O (centres undefined) ? 10.2 µM (inactive)

How about COC(=O)C12C34C=CC5(CCC6(C=CC1(CC3)O6)C52C(=O)OC)O4 (centres undefined) ? > 100 µM (inactive)

How about `Cc1cc(C)c2[s+]snc2c1` ? 47.1 µM (inactive)

Taken from ChEMBL document CHEMBL1201862.
